tested on: SNB-75 CNS; test: NCI-60 one-dose screen, 48 h (100 = growth as untreated, 0 = no growth, -100 = all killed); details: 10 µM unless noted
This is part of a sample that, as a whole, favours compounds with a hit. Of some 83,000 tested, about 20% had one in any assay.
reported_property: growth (%)
// note: answer is a bare numeric in %

Take a look at these entries with their results.
- molecule: "COc1ccc(C/C(C)=C(\\c2ccc(Cl)cc2)c2ccc(OCCN3CCCCC3)cc2)cc1"
  reported_property: "growth"
  unit_string: "%"
  recorded_result: 89.3
- molecule: "COc1ccc(-c2nn(-c3cccc(Cl)c3)cc2-c2cc(-c3ccc(Br)cc3)nc(N)n2)cc1"
  reported_property: "growth"
  unit_string: "%"
  recorded_result: 96.9
- molecule: "CCCNC(=O)Nc1ccc2cc3ccc(NC(=O)NCCC)cc3nc2c1"
  reported_property: "growth"
  unit_string: "%"
  recorded_result: 71.7
- molecule: "COc1c(C(=O)Nc2ccc(C)c(Br)c2)ccc2ccccc12"
  reported_property: "growth"
  unit_string: "%"
  recorded_result: 88.4
- molecule: "Cc1ccc(C2=Nc3c(N)ncnc3NC(c3cccc(Nc4ccnc5cc(C(F)(F)F)ccc45)c3)C2)cc1 (centres undefined)"
  reported_property: "growth"
  unit_string: "%"
  recorded_result: 21.7
- molecule: "CC(=O)c1c(C)nc(SCC(=O)Nc2cccc(O)c2)n1-c1ccc(Cl)cc1"
  reported_property: "growth"
  unit_string: "%"
  recorded_result: 62.8
- molecule: "CC(C)c1ccc(Cc2cnc(NC(=O)c3cc(Br)cs3)s2)cc1"
  reported_property: "growth"
  unit_string: "%"
  recorded_result: -3.65
- molecule: "CCc1ccc(CCCC(=O)O)cc1"
  reported_property: "growth"
  unit_string: "%"
  recorded_result: 87.9

In the following, a different molecule is considered.
### Prompt Give the reported value of growth for this record: O=C1/C(=C/c2ccccc2Br)COc2ccc(O)cc21
### Response 89.3

###

test system: M14 melanoma; assay: NCI-60 one-dose screen, 48 h (100 = growth as untreated, 0 = no growth, -100 = all killed); conditions: 10 µM unless noted
Compounds without any hit were thinned out: in the full panel of roughly 83,000, 20% have a hit.
reported_property: growth (%)
// note: answer is a bare numeric in %

- compound: "CC1(C)COB(OCC(C)(C)COB2OCC(C)(C)CO2)OC1"
  recorded_result: 105

### Prompt Give the reported value of growth for this record: CC1=C([Se]CC(OC(=O)CC[Se]c2ccccc2)C(=O)NC(C)(C)C)C(=O)c2ccccc2C1=O (stereo not given)
### Response -77.8

### Prompt Give the reported value of growth for this record: O=C(CSc1nc2ccc([N+](=O)[O-])cc2[nH]1)Nc1ccc([N+](=O)[O-])cc1
### Response 24.5

### Prompt Give the reported value of growth for this record: COc1ccc(OC)c(Nc2nnc(-c3ccc(O)c(OC)c3)o2)c1
### Response 74.6

### Prompt Give the reported value of growth for this record: CCn1c(SCC(=O)N/N=C(\C)c2ccc(Cl)cc2)nc2c1c(=O)n(C)c(=O)n2C
### Response 97.4

### Prompt Give the reported value of growth for this record: NC(=O)c1c(NC(=O)c2ccc3ccccc3c2)sc2c1CCC(=O)C2
### Response 37.4

### Prompt Give the reported value of growth for this record: CCCCn1c(=O)[nH]c(N)c([C@@H]2c3c([nH]c(=O)n(CCCC)c3=O)Oc3ccc4ccccc4c32)c1=O
### Response 31.1

Each recorded value in this set is attributed to PubChem BioAssay (NCI).
